# credit: paper PMC11277421

- System: iPSC-CMs
- Assay Text: Cardiotoxicity test: spontaneous calcium oscillations (FLIPR, EarlyTox dye)
- Conditions Used: Homo sapiens, iPSC-CM, read-out: EC50 (beating rate, calcium oscillations)
molecules and their reported EC50
Only the number, expressed in µM, is required.

Molecule | Unit Of Measure | EC50
COc1ccc([C@@H]2Sc3ccccc3N(CCN(C)C)C(=O)[C@@H]2OC(C)=O)cc1 [diltiazem] | µM | 5.97
CN(CCOc1ccc(NS(C)(=O)=O)cc1)CCc1ccc(NS(C)(=O)=O)cc1 [dofetilide] | µM | 0.018
CC(C)c1nc(CN(C)C(=O)N[C@H](C(=O)N[C@@H](Cc2ccccc2)C[C@H](O)[C@H](Cc2ccccc2)NC(=O)OCc2cncs2)C(C)C)cs1 [ritonavir] | µM | 6.09
O=C(NCC1CCCCN1)c1cc(OCC(F)(F)F)ccc1OCC(F)(F)F (centres unmarked) [flecainide] | µM | 17.5

Attention now shifts to the item below.
iPSC-CMs EC50 of COc1ccc(CCN(C)CCCC(C#N)(c2ccc(OC)c(OC)c2)C(C)C)cc1OC (centres unmarked) [verapamil] is 0.522
